These data points were gathered from paper PMC9889658.

target_desc: T1, MadC (lanthionine cyclase of Clostridium sp. maddingley), His6-tag cleaved off (Clostridium sp. maddingley)
T1 construct: MadC, class I lanthipeptide cyclase, Clostridium sp. maddingley, NCBI EKQ50560.1, synthetic gene from GenScript in pET28b(+); calculated molecular weight 49.71 kDa; also called cleaved MadC; class I cyclase MadC; not shown: His6, N-terminal, cleaved
experiment_description: ITC; MadC (200–600 μM) in the syringe, 20 injections of 2 μl into the cell with the leader variant (20–60 μM); 25°C; 50 mM HEPES, 500 mM NaCl, pH 7.5; at least triplicate
assay_conditions: both partners purified
endpoint_label: Kd (µM)
Answers are plain numbers, in µM.

Below: 2 binders and their reported Kd.
MGKLDDFDLDVKVKADTTKVGPA [maddinglicin leader peptide construct madL1, Leader 1 (−23 – −1)]	10.4
MGKLDDFDLDVKVKADTTKVGPAITSKS [maddinglicin leader peptide construct madL2, Leader 2 (−23 − +5)]	9.35

--- query ---
Ask: So what's the measured Kd for this one? MGKLDDFDLDVKVKADTTKVGPAITSKSLCTPG (synthetic, unmodified peptide (no lanthionine rings); MadA 1-33 from Table S4) [maddinglicin leader peptide construct madL3, Leader 3 (−23 − +10)]
Result: 5.69
